Please respond with reported kon for every item in the list.
- system.name: T1, human CD115 extracellular domain (Sino Biological 10161-H08H) (human, UniProt P07333 20-517)
- T1 construct: extracellular domain; bought recombinant protein; also called huCD115; hu-CD115
- assay.info: SPR ProteOn, mAb amine coupled, Hu CD115 analyte
Numbers only, in M⁻¹ s⁻¹.

Consider the reported kon for these binders:
binder	experimental.value
CCK423A-IgG4κ (fully human) (antibody, V domains shown, also called Human IgG4κ; CCK423A-IgG4K) VH: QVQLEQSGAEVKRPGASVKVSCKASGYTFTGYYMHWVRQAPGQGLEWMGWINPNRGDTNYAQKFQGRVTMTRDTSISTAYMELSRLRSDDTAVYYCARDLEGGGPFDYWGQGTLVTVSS VL: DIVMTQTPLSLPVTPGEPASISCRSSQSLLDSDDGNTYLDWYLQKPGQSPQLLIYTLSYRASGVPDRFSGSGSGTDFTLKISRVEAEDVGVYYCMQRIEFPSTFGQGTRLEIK	1.1e+07
CCK-423A (antibody, V domains shown, AlivaMab chimeric IgG, human kappa LC; also called AlivaMab CCK423A; AlivaMab Mouse CCK423A) VH: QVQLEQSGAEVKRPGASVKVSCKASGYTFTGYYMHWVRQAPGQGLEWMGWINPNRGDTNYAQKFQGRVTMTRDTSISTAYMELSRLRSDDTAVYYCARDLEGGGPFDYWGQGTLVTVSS VL: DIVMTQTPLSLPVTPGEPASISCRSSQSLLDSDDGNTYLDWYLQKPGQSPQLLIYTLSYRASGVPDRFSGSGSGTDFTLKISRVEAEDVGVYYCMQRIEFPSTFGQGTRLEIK	1.3e+07
CCK423A-IgG1κ (fully human) (antibody, V domains shown, also called Human IgG1κ; CCK423A-I IgG1κ) VH: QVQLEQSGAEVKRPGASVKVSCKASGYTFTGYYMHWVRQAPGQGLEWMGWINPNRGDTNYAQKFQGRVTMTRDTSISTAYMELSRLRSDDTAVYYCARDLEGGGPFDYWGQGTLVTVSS VL: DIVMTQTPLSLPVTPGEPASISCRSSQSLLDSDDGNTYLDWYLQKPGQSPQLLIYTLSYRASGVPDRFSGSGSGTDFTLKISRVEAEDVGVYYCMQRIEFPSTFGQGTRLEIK	1.2e+07

Now examine the next entry.
q: Indicate the recorded kon value for this binder: CCK423A-IgG2κ (fully human) (antibody, V domains shown, also called Human IgG2κ) VH: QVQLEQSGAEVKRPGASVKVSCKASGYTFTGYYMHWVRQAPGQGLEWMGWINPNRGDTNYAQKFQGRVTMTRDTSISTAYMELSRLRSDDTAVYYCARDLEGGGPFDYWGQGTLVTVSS VL: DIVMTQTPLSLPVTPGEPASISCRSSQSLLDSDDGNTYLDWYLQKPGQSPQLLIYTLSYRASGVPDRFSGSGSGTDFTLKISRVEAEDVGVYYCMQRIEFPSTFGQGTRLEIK
a: 1.3e+07
